# Tested on: MCF10A
# EXPERIMENTAL DETAILS: one-nucleolus phenotype percent effect (relative to siNT 0% and siNOL11 100%); higher = more cells with one nucleolus (ribosome biogenesis inhibition)
# EXPERIMENTAL CONTEXT: 20 nM; 72 h
ATTRIBUTE MEASURED: one-nucleolus phenotype percent effect

Answered examples (5):
GUUUGGACAUAGUGUGGCUGG [hsa-miR-7850-5p]: -32.7%
UUUCUUCUUAGACAUGGCAGCU [hsa-miR-4659b-3p]: -5.32%
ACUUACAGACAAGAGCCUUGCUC [hsa-miR-600]: -28.1%
GUGAGUGUGGAUUUGGCGGGGUU [hsa-miR-6790-5p]: 18.2%
UGAGGUAGGAGGUUGUAUAGUU [hsa-let-7e-5p]: -8.3%

// switching to the query sequence
[in] Record lookup: for MCF10A, what one-nucleolus phenotype percent effect belongs to CCGGGGCAGAUUGGUGUAGGGUG [hsa-miR-5090] ?
[out] -10.2%

====

# Tested on: MCF10A
# EXPERIMENTAL DETAILS: percent viability (nuclei count relative to siNT); higher = more viable cells
# EXPERIMENTAL CONTEXT: 20 nM; 72 h
Threshold-based label: percent viability under 50% gives true, percent viability not under 50% gives false.

Past entries and their recorded results:
AGAAUUGCGUUUGGACAAUCAGU [hsa-miR-2964a-3p]: true
CAGGGGCUGGGGUUUCAGGUUCU [hsa-miR-6813-5p]: true
AUGGGGACAGGGAUCAGCAUGGC [hsa-miR-6810-5p]: true
UGAGUAUUACAUGGCCAAUCUC [hsa-miR-496]: true
CAUUCAACUAGUGAUUGU [hsa-miR-4272]: false

Shift focus to the following entry.
[in] Please determine if CCAAUAUUACUGUGCUGCUUUA [hsa-miR-16-2-3p] is below 50% in terms of percent viability.
[out] false

====

# Tested on: MCF10A
# EXPERIMENTAL DETAILS: 5+ nucleoli phenotype percent effect (relative to siNT 0% and siKIF11 100%); higher = more cells with five or more nucleoli
# EXPERIMENTAL CONTEXT: 20 nM; 72 h
Entries and their 5+ nucleoli phenotype percent effect
All answers are understood in %, so give the number only.

[in] Data request, read-out 5+ nucleoli phenotype percent effect, for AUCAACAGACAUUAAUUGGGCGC [hsa-miR-421]
[out] -13.6

====

# Tested on: MCF10A
# EXPERIMENTAL DETAILS: one-nucleolus phenotype percent effect (relative to siNT 0% and siNOL11 100%); higher = more cells with one nucleolus (ribosome biogenesis inhibition)
# EXPERIMENTAL CONTEXT: 20 nM; 72 h
ATTRIBUTE MEASURED: one-nucleolus phenotype percent effect (%)
All answers are understood in %, so give the number only.

Answered examples (3):
UCUUCUUCCUUUGCAGAGUUGA [hsa-miR-4778-3p]: -1.98
AAGGCCCGGGCUUUCCUCCCAG [hsa-miR-4747-3p]: 31.7
UGGCCCUUUGUACCCCUCCAG [hsa-miR-6851-3p]: -21.4

[in] Data request, read-out one-nucleolus phenotype percent effect, for UUACAGGCGUGAACCACCGCG [hsa-miR-5095]
[out] 15.8

[in] Follow-up entry: UGACUGCCUCACUGACCACUU [hsa-miR-5002-3p]
[out] -1.84

[in] Follow-up entry: GGUGCAGUGCUGCAUCUCUGGU [hsa-miR-143-5p]
[out] -7.79
